- experimental.target: T1, mouse DLL4, full length, overexpressed on CHO cells (mouse, UniProt Q9JI71 27-686)
- T1 construct: whole, on cells; also called mDLL4; CHO-mDLL4
- T1 sequence (Q9JI71 27-686): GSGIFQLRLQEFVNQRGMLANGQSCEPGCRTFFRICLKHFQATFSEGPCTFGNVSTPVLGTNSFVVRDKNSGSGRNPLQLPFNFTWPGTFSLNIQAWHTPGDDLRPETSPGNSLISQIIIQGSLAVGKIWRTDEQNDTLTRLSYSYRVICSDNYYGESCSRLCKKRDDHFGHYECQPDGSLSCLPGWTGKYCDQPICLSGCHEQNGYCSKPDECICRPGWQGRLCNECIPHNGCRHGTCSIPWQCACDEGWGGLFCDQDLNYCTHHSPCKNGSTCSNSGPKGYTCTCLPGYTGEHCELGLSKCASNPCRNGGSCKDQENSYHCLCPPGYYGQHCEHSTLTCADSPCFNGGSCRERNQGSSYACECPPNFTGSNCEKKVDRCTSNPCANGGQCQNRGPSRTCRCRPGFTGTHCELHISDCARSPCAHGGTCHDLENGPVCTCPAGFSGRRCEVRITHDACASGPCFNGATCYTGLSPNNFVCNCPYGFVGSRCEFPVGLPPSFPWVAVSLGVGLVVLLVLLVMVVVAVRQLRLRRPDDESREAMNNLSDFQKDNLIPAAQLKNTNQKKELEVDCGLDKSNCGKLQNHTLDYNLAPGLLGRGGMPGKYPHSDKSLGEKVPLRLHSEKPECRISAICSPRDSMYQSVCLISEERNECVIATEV
- test.method.notes: FMAT, hNotch1-Fc on CHO-mDLL4, -HSA
% inh by entry:
property.name: % inh (%)

>>> observed_value("DLLBII129B05 (VHH, not shown: small tags and cut ends) VHH: EVQLVESGGGLVQAGGSLRLSCAASGRTFSSYAMAWYRQAPGKEREYVAAIRWSGGTAYYADSVQGRFTISRDNAKNTVYLQMNSLKPEDTAVYYCANRAPDTRLAPYEYDHWGQGTQVTVSS")
100
>>> observed_value("DLLBII136C07 (VHH, not shown: small tags and cut ends) VHH: EVQLVESGGGLVQPGGSLRLSCAASGFTFGSYDMSWVRRSPGKGPEWVSSINSGGGSTYYADYVKGRFTISRDNAKNTLYLQMNSLKPEDTAVYYCAADRYIWARQGEYWGAYEYDYWGQGTQVTVSS")
100
>>> observed_value("VEGFDLLBII013 (bispecific antibody, PEGylated at the Cys at position 15 of the 35 Gly-Ser linker, VEGFBII23B04 - 35GS(Cys15) - DLLBII129B05) EVQLVESGGGLVQTGDSLRLSCEVSGRTFSSYSMGWFRQAQGKEREFVVAISKGGYKYDSVSLEGRFTISKDNAKNTVYLQINSLKPEDTAVYYCASSRAYGSSRLRLADTYEYWGQGTQVTVSSGGGGSGGGGSGGGGCGGGGSGGGGSGGGGSGGGGSEVQLVESGGGLVQAGGSLRLSCAASGRTFSSYAMAWYRQAPGKEREYVAAIRWSGGTAYYADSVQGRFTISRDNAKNTVYLQMNSLKPEDTAVYYCANRAPDTRLAPYEYDHWGQGTQVTVSS")
100
>>> observed_value("VEGFDLLBII012 (bispecific antibody, PEGylated at the Cys at position 15 of the 35 Gly-Ser linker, VEGFBII23B04 - 35GS(Cys15) - DLLBII136C07) EVQLVESGGGLVQTGDSLRLSCEVSGRTFSSYSMGWFRQAQGKEREFVVAISKGGYKYDSVSLEGRFTISKDNAKNTVYLQINSLKPEDTAVYYCASSRAYGSSRLRLADTYEYWGQGTQVTVSSGGGGSGGGGSGGGGCGGGGSGGGGSGGGGSGGGGSEVQLVESGGGLVQPGGSLRLSCAASGFTFGSYDMSWVRRSPGKGPEWVSSINSGGGSTYYADYVKGRFTISRDNAKNTLYLQMNSLKPEDTAVYYCAADRYIWARQGEYWGAYEYDYWGQGTQVTVSS")
100
